tested on: TGFBR1 (Homo sapiens)
Sequence (P36897 34-503): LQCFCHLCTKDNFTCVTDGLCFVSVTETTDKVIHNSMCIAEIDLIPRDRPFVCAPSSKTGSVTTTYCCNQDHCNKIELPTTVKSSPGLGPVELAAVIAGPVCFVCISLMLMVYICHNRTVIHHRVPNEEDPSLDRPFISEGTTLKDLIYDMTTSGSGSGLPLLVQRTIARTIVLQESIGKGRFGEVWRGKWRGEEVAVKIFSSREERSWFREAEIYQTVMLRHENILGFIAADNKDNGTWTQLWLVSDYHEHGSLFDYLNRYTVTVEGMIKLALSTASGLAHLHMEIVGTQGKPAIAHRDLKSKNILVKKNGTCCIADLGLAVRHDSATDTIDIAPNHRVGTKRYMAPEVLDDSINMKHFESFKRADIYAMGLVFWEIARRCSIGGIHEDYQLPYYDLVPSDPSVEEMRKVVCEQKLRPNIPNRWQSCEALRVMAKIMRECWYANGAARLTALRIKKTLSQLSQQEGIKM
test description: Kinase profiling TGFBR1
Type: biochemical
condition summary: 100 micromolar inhibitor concentration; 100 is no change
value kind: residual kinase activity, TGFBR1

Observe how each entry below is paired with its result.
Under TGFBR1 (Homo sapiens): report residual kinase activity, TGFBR1 of O=C(Nc1nc2ccc(O)cc2s1)c1ccncc1 . 106

Under TGFBR1 (Homo sapiens): report residual kinase activity, TGFBR1 of CC(=O)Nc1nc2ccccc2s1 . 92

Under TGFBR1 (Homo sapiens): report residual kinase activity, TGFBR1 of O=C(Nc1nc2cc(O)ccc2s1)c1ccncc1 . 107

Below: the item to evaluate.
Under TGFBR1 (Homo sapiens): report residual kinase activity, TGFBR1 of CC(=O)Nc1nc2cc(C)ccc2s1 . 98

----------
tested on: PAK4 (Homo sapiens)
Sequence (O96013 whole entry, species assumed): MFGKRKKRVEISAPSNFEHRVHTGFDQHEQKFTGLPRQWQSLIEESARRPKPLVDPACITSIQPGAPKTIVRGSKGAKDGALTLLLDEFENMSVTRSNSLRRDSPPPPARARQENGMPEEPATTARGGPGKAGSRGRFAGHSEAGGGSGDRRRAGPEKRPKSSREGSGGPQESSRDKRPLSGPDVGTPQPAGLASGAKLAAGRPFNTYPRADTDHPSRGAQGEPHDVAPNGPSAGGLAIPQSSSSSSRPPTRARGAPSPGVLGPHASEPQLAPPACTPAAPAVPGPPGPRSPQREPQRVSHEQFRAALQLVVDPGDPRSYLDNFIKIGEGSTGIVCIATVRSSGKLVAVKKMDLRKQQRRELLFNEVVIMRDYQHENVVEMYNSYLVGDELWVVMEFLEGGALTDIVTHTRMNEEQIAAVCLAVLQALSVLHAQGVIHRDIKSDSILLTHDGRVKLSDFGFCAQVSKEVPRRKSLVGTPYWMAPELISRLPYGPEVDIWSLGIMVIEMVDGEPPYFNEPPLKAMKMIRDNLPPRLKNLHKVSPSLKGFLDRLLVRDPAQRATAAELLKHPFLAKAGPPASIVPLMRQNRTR
test description: Kinase profiling PAK4
Assay type: biochemical
condition summary: 100 micromolar inhibitor concentration; 100 is no change; read-out: residual kinase activity, PAK4
Entries whose remaining activity at 100 µM is below 90% take Fulfilled; entries at or above 90% take Not fulfilled.

Field: example entries. Status: answers known.
Consider CC(=O)Nc1nc2ccc([N+](=O)[O-])cc2s1 . Does its remaining activity at 100 µM lie strictly below 90%? Fulfilled

Consider CC(=O)Nc1nc2cc(C(F)(F)F)ccc2s1 . Does its remaining activity at 100 µM lie strictly below 90%? Fulfilled

Consider CC(=O)Nc1nc2ccc(C#N)cc2s1 . Does its remaining activity at 100 µM lie strictly below 90%? Fulfilled

Consider CC(=O)Nc1nc2ccc(C(F)(F)F)cc2s1 . Does its remaining activity at 100 µM lie strictly below 90%? Fulfilled

Consider CC(=O)Nc1nc2cc(F)ccc2s1 . Does its remaining activity at 100 µM lie strictly below 90%? Not fulfilled

Consider CC(=O)Nc1nc2ccc(O)cc2s1 . Does its remaining activity at 100 µM lie strictly below 90%? Fulfilled

API: the following record is the query input.
Consider COc1ccc2sc(NC(C)=O)nc2c1 . Does its remaining activity at 100 µM lie strictly below 90%? Not fulfilled

----------
tested on: DAPK1 (Homo sapiens)
Sequence (P53355 whole entry, species assumed): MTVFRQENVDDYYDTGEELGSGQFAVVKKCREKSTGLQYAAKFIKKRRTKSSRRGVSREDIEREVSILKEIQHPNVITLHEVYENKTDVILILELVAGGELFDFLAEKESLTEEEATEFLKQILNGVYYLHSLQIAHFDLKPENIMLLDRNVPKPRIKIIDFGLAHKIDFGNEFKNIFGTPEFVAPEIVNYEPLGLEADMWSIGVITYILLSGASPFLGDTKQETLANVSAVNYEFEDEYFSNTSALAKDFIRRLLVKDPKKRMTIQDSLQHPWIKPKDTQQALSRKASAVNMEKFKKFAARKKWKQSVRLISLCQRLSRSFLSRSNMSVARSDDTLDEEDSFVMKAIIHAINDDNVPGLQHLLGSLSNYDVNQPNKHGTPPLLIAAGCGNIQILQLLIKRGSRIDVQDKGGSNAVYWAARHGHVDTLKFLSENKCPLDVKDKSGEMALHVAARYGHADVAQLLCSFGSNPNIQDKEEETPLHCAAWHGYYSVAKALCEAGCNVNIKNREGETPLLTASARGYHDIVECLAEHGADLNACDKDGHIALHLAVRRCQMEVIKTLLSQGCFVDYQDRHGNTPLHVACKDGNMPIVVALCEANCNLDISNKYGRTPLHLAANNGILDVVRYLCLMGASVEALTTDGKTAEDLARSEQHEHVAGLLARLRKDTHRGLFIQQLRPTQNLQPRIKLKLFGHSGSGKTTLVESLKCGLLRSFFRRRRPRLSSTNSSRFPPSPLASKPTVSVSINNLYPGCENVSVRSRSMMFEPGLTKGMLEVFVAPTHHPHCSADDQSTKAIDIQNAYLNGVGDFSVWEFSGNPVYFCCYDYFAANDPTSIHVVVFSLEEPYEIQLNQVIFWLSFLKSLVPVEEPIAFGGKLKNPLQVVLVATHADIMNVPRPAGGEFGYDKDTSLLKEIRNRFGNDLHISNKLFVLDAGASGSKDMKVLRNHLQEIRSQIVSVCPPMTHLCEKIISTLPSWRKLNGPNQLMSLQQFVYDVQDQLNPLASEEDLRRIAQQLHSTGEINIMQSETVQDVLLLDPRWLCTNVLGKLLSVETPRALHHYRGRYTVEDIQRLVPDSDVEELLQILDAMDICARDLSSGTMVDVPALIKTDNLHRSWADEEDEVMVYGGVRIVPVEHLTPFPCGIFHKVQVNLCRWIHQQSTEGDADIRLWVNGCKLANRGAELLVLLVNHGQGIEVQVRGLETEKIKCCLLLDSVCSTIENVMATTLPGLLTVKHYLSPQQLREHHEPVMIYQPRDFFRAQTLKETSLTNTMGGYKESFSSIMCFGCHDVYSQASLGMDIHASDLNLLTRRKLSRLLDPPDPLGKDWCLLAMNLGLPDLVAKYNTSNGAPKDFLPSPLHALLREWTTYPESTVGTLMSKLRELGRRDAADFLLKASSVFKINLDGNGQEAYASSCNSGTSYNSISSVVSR
test description: Kinase profiling DAPK1
Type: biochemical
condition summary: 100 micromolar inhibitor concentration; 100 is no change; read-out: residual kinase activity, DAPK1
value kind: remaining activity at 100 µM (%)
One number for each entry, in %.

Observe how each entry below is paired with its result.
Under DAPK1 (Homo sapiens): report remaining activity at 100 µM of CC(=O)Nc1nc2ccc(C#N)cc2s1 . 41

Under DAPK1 (Homo sapiens): report remaining activity at 100 µM of CC(=O)Nc1nc2ccc(O)cc2s1 . 21

Your task in this section: give remaining activity at 100 µM for each listed record.
1. CC(=O)Nc1nc2cc(F)ccc2s1
2. CC(=O)Nc1nc2ccc(C(F)(F)F)cc2s1
3. COc1ccc2sc(NC(C)=O)nc2c1
4. CC(=O)Nc1nc2cc(C(F)(F)F)ccc2s1

1: 82; 2: 85; 3: 79; 4: 93
